Record form. Attribute: cell viability. Fill in for each entry.
- System: NOMO1
- Assay Protocol: cell viability relative to DMSO control; higher = less cytotoxic
- Condition Label: RPMI 5 mM glucose + 10% FBS; 48 h; 5.12 µM
Give bare numbers, in %.

Compound: CC(=O)NC(CS)C(=O)O (stereo not drawn)
cell viability (%): 84.5
//
Compound: CCC1(c2ccc(N)cc2)CCC(=O)NC1=O (stereo not drawn)
cell viability (%): 123
//
Compound: COc1cc(O)c2c(c1)C1OC1C[C@H](O)[C@H](O)C(=O)/C=C\C[C@H](C)OC2=O (stereo partly drawn)
cell viability (%): 97.8

Give cell viability for each of the items listed below.
1. OC(=O)\C1=C\N(C2=CC=C(F)C=C2)C3=C(C=C(F)C(=C3)N4CCNCC4)C1=O
2. C\C1=C\N([C@H]2C[C@H](N=[N+]=[N-])[C@@H](CO)O2)C(=O)NC1=O

[115, 15.1]

* * *

Give cell viability for every item shown.
- Test system: P12-Ichikawa
- Assay Protocol: cell viability relative to DMSO control; higher = less cytotoxic
- Condition Label: RPMI 5 mM glucose + 10% FBS; 48 h; 0.19 µM
Answers are plain numbers, in %.

Examples with answers:
Molecule: O=C(O)c1ccc(-n2nc(-c3ccccc3O)nc2-c2ccccc2O)cc1
Value Unit: %
Observed Measurement: 104
//
Molecule: C1CCC(C(CC2CCCCN2)C2CCCCC2)CC1 (stereo not given)
Value Unit: %
Observed Measurement: 134
//
Molecule: CC(C)Oc1cc(Nc2nc(N[C@@H](C)c3ccc(F)cn3)ncc2Cl)n[nH]1
Value Unit: %
Observed Measurement: 110

Respectfully, I request cell viability for each entry included below.
1. CCC1(c2ccc(N)cc2)CCC(=O)NC1=O (stereo not given)
2. CN(C/C=C/C#CC(C)(C)C)Cc1cccc2ccccc12
3. NC(=O)c1ncn([C@@H]2O[C@H](CO)[C@@H](O)[C@H]2O)n1
4. CCC[C@H](N[C@@H](C)C(=O)N1[C@H](C(=O)O)C[C@@H]2CCCC[C@@H]21)C(=O)OCC
5. O=C(Nc1cccc(Nc2ncc(Br)c(NCCc3cnc[nH]3)n2)c1)N1CCCC1

1. 115
2. 105
3. 103
4. 108
5. 79.7

Take each entry in turn and give its cell viability.
1. CC(C)(C)c1cc(C=C(C#N)C#N)cc(Br)c1O
2. CN1CCC(CC1)COC2=CN=C(N=C2)C3=CC(=CC=C3)CN4/N=C(\C=C/C4=O)C5=CC(=CC=C5)C#N
3. Cn1cc(-c2ccc3nnc(C(F)(F)c4ccc5ncccc5c4)n3n2)cn1
4. Oc1ccc(C2CCN(c3ccnc4ccccc34)CC2)cc1O

1. 123
2. 118
3. 113
4. 107

For every record below, what is its cell viability?
1. C[C@H]1C[C@H]2[C@@H]3CCC4=CC(=O)C=C[C@]4(C)[C@@]3(F)[C@@H](O)C[C@]2(C)[C@@]1(O)C(=O)CO
2. Oc1ccc(/C=C/c2cc(O)cc(O)c2)cc1
3. CNC1[C@@H](O)C(O[C@@H]2C(O)C(O[C@H]3O[C@H]([C@@H](C)NC)CC[C@H]3N)[C@@H](N)C[C@H]2N)OC[C@]1(C)O (stereo not given in full)

[73.1, 112, 102]
